# MEASURED ON: ~100 representative kinases (Homo sapiens, UniProt Q13873)
# Construct: Recombinant protein kinase domains with a concentration of 2 μM
# Sequence (Q13873 27-1038): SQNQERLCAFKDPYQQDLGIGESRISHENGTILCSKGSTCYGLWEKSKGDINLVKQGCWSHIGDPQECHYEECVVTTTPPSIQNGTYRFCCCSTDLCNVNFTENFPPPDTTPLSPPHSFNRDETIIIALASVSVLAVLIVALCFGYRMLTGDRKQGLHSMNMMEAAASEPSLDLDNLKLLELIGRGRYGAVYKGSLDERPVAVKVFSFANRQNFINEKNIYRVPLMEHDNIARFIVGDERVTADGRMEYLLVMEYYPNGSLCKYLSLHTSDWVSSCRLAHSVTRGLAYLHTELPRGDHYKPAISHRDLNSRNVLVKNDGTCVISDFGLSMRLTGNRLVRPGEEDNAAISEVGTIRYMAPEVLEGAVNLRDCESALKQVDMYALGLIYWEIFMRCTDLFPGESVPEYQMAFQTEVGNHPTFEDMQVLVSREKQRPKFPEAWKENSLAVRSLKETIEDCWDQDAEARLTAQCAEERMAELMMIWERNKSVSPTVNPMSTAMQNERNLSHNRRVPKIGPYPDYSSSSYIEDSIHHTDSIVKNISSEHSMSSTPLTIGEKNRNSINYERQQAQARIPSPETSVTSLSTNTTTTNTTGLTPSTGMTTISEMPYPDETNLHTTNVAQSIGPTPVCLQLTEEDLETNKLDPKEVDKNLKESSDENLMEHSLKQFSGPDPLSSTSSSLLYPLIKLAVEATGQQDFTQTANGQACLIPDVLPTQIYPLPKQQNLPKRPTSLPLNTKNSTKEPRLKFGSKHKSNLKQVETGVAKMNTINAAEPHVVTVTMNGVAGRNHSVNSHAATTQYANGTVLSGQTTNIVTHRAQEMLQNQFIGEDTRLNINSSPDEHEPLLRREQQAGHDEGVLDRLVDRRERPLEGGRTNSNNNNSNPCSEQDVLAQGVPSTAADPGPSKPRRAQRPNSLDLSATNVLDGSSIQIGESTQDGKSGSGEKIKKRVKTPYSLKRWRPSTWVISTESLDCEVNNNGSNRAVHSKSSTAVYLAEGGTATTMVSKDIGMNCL
# PROCEDURE DETAILS: DSF 100 kinase selectivity screen;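 note: compound tested at 20 µM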
# Format: binding
# RECORDED CONDITIONS: Protein BMPR2; average of three replicates
OUTCOME MEASURE: dTm (K)

Below are worked cases with known answers.
Cc1ccc(C(=O)Nc2ccc(CN3CCN(C)CC3)c(C(F)(F)F)c2)cc1C#Cc1c[nH]c2ncnc(N3CCOCC3)c12 = 1.36
O=C(Nc1cccc(-c2c[nH]c3ncnc(N4CCOCC4)c23)c1)C1(C(=O)Nc2ccc(F)c(Br)c2)CC1 = -0.62
O=C(Nc1cc(F)cc(Br)c1)C1(C(=O)Nc2cccc(-c3c[nH]c4ncnc(N5CCOCC5)c34)c2)CC1 = 0.25
COc1cc2c(Oc3ccc(NC(=O)C4(C(=O)Nc5ccc(F)cc5)CC4)cc3F)ccnc2cc1OCCCN1CCOCC1 [Foretinib, reference compound] = 0.59

1. O=C(Nc1cccc(-c2c[nH]c3ncnc(N4CCOCC4)c23)c1)C1(C(=O)Nc2ccc(F)c(Br)c2F)CC1
2. CCc1ccc(NC(=O)C2(C(=O)Nc3cccc(-c4c[nH]c5ncnc(N6CCOCC6)c45)c3)CC2)cc1
3. CC(C)(C)c1cccc(NC(=O)C2(C(=O)Nc3cccc(-c4c[nH]c5ncnc(N6CCOCC6)c45)c3)CC2)c1
Exercise: Sort entries by dTm from minimum to maximum value. Please list the labels in the order you were asked to rank them.
Solution: 1, 3, 2

###

# MEASURED ON: ~100 representative kinases (Homo sapiens, UniProt O14976)
# Construct: Recombinant protein kinase domains with a concentration of 2 μM
# Sequence (O14976 1-1311): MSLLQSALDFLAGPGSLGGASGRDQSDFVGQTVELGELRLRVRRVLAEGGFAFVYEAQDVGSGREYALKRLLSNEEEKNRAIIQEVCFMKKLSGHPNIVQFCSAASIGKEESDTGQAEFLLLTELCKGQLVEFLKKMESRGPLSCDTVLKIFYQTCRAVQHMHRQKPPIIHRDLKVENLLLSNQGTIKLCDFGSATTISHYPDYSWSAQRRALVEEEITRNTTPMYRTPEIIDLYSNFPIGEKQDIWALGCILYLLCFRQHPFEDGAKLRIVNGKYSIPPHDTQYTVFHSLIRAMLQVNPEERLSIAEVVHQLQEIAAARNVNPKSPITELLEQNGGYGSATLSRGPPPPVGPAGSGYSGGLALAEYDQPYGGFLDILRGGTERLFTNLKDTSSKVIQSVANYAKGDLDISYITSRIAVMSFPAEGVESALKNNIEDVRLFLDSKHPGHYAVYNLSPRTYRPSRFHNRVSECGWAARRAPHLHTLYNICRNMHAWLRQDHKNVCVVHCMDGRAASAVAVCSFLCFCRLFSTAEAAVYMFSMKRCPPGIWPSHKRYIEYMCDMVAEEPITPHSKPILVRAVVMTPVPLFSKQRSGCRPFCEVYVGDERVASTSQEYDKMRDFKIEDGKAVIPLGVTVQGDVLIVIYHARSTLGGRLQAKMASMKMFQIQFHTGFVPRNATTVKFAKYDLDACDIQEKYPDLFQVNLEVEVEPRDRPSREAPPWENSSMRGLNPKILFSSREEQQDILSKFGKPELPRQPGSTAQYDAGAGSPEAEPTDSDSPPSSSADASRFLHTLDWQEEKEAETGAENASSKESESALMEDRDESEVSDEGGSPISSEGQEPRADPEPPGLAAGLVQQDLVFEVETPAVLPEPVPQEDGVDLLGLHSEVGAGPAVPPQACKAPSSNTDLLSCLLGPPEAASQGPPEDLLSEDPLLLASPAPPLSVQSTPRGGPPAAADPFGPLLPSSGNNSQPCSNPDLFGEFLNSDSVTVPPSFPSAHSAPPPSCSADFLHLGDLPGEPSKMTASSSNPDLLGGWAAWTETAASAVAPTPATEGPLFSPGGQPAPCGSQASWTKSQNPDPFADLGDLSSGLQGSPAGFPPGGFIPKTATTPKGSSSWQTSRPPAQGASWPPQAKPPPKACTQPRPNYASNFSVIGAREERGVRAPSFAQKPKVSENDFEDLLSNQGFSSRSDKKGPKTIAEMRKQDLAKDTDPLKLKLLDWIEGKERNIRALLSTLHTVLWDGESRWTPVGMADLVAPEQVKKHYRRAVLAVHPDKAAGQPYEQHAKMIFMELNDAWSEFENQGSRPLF
# PROCEDURE DETAILS: DSF 100 kinase selectivity screen;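 note: compound tested at 20 µM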
# Type: binding
# RECORDED CONDITIONS: protein GAK; average of three replicates
OUTCOME MEASURE: dTm (K)

Below are worked cases with known answers.
CCSc1nc(NC)c2c(-c3cccc(NC(=O)Nc4cc(C(C)(C)C)nn4-c4ccc(C)cc4)c3)c[nH]c2n1 = -1.07
O=C(Nc1cccc(-c2c[nH]c3ncnc(N4CCOCC4)c23)c1)C1(C(=O)Nc2ccc(F)c(F)c2)CC1 = 1.14

a. CC(C)(C)c1cccc(NC(=O)C2(C(=O)Nc3cccc(-c4c[nH]c5ncnc(N6CCOCC6)c45)c3)CC2)c1
b. Cc1cc(NC(=O)C2(C(=O)Nc3cccc(-c4c[nH]c5ncnc(N6CCOCC6)c45)c3)CC2)ccc1F
c. Cc1ccc(C(=O)Nc2ccc(CN3CCN(C)CC3)c(C(F)(F)F)c2)cc1C#Cc1c[nH]c2ncnc(N3CCOCC3)c12
d. O=C(Nc1cccc(-c2c[nH]c3ncnc(N4CCOCC4)c23)c1)C1(C(=O)Nc2cccc3c2CCC3)CC1
Exercise: hey, can you rank those molecules up there by dTm? biggest number first please Please list the labels in the order you were asked to rank them.
Solution: c, b, d, a
(c: 3.03 K, b: 1.48 K, d: -0.59 K, a: -2.23 K)

###

# MEASURED ON: ~100 representative kinases (Homo sapiens, UniProt P29317)
# Construct: Recombinant protein kinase domains with a concentration of 2 μM
# Sequence (P29317 24-976): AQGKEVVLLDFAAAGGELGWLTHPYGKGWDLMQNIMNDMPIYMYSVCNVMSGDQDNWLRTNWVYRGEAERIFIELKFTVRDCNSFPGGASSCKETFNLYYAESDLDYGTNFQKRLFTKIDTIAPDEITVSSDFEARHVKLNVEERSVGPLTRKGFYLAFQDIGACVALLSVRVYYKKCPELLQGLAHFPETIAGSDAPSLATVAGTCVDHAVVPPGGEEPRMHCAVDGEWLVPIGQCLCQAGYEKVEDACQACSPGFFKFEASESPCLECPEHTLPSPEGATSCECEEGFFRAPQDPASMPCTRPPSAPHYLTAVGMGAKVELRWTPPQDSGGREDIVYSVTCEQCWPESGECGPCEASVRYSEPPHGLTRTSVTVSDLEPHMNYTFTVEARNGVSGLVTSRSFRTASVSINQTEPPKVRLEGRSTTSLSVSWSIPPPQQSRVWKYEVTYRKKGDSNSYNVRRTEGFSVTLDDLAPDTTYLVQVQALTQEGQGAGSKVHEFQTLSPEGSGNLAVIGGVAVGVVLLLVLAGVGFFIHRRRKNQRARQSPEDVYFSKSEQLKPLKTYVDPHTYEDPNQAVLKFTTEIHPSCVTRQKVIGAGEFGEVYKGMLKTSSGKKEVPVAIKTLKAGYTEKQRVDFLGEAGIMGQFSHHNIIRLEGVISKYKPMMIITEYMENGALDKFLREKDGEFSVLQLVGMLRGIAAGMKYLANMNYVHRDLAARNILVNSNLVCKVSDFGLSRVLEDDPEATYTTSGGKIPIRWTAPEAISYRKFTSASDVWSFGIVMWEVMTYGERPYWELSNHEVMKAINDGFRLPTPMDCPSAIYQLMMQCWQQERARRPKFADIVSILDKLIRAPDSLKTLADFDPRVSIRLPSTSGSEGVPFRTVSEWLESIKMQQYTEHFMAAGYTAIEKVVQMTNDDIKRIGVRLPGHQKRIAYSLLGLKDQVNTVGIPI
# PROCEDURE DETAILS: DSF 100 kinase selectivity screen;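 note: compound tested at 20 µM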
# Format: binding
# RECORDED CONDITIONS: Protein EPHA2; average of three replicates
# Experimental: Recombinant protein kinase domains with a concentration of 2 μM were mixed with a 20 μM compound solution in dimethyl sulfoxide (DMSO), 20 mM Hepes (pH 7.5), and 500 mM NaCl. SYPRO Orange (5000×, Invitrogen) was added as a fluorescence probe (1μl/ml). Subsequently, temperature-dependent protein unfolding profiles were measured using the QuantStudio 5 realtime PCR machine (Thermo Fisher Scientific, Waltham, MA, USA). […] The temperature was raised with a step rate of 3°C/min. […]
OUTCOME MEASURE: dTm (K)

Below are worked cases with known answers.
CC(C)(C)c1cccc(NC(=O)C2(C(=O)Nc3cccc(-c4c[nH]c5ncnc(N6CCOCC6)c45)c3)CC2)c1 [Compound 22] = 3.30
Cc1ccc(C(=O)Nc2ccc(CN3CCN(C)CC3)c(C(F)(F)F)c2)cc1C#Cc1cnc2[nH]ncc2c1 [GZD-824, reference compound] = 17.23
O=C(Nc1ccccc1)C1(C(=O)Nc2cccc(-c3c[nH]c4ncnc(N5CCOCC5)c34)c2)CC1 [Compound 12] = 5.20

P. COc1cc(S(C)(=O)=O)ccc1Nc1nc(N(C)C)c2c(Cl)c[nH]c2n1 [Compound 37]
Q. O=C(Nc1cccc(-c2c[nH]c3ncnc(N4CCOCC4)c23)c1)C1(C(=O)Nc2ccc(F)c(Br)c2)CC1 [Compound 19]
Exercise: Higher dTm between P and Q ? Answer by quoting the chosen item's label.
Solution: Q
(Q: 4.87 K, P: -0.56 K)

P. COc1cc(NC(=O)C2(C(=O)Nc3cccc(-c4c[nH]c5ncnc(N6CCOCC6)c45)c3)CC2)ccc1F [Compound 21]
Q. O=C(Nc1cccc(-c2c[nH]c3ncnc(N4CCOCC4)c23)c1)C1(C(=O)Nc2cc(Br)c(F)cc2F)CC1 [Compound 25]
Exercise: Which entry shows the lesser value of dTm here, P or Q ? Answer by quoting the chosen item's label.
Solution: Q
(Q: 1.14 K, P: 2.31 K)

a. O=C(Nc1cccc(-c2c[nH]c3ncnc(N4CCOCC4)c23)c1)C1(C(=O)Nc2ccc(F)c(Br)c2F)CC1 [Compound 26]
b. O=C(Nc1cccc(-c2c[nH]c3ncnc(N4CCOCC4)c23)c1)c1cccn(-c2ccc(F)cc2)c1=O [Compound 4]
Exercise: Higher dTm between a and b ? Answer by quoting the chosen item's label.
Solution: b
(b: 6.09 K, a: 2.30 K)

I. Cc1ccc(NC(=O)C2(C(=O)Nc3cccc(-c4c[nH]c5ncnc(N6CCOCC6)c45)c3)CC2)cc1 [Compound 14]
II. CC(=O)N1CCN(c2nc(Cl)nc3[nH]cc(-c4cccc(NC(=O)Nc5cc(C(C)(C)C)nn5-c5ccc(C)cc5)c4)c23)CC1 [Compound 31]
III. CCNc1nc(Nc2cc(F)c(C(=O)N3CCOCC3)cc2OC)ncc1C(F)(F)F [GNE-7915]
IV. CC(C)(C)c1cc(NC(=O)Nc2cccc(-c3c[nH]c4ncnc(N5CCOCC5)c34)c2)n(-c2ccc3ncccc3c2)n1 [Compound 28]
Exercise: hey, can you rank those compounds up there by dTm? biggest number first please Please list the labels in the order you were asked to rank them.
Solution: IV, I, II, III

P. O=C(Nc1ccc(Cl)cc1)C1(C(=O)Nc2cccc(-c3c[nH]c4ncnc(N5CCOCC5)c34)c2)CC1 [Compound 13]
Q. Cc1cc(NC(=O)C2(C(=O)Nc3ccc(F)cc3)CC2)cc(-c2c[nH]c3ncnc(N4CCOCC4)c23)c1 [Compound 6]
R. O=C(Nc1cc(F)cc(Br)c1)C1(C(=O)Nc2cccc(-c3c[nH]c4ncnc(N5CCOCC5)c34)c2)CC1 [Compound 27]
Exercise: hey, can you rank those compounds up there by dTm? biggest number first please Please list the labels in the order you were asked to rank them.
Solution: P, Q, R
(P: 8.00 K, Q: 3.21 K, R: 0.41 K)

a. Cc1cc(NC(=O)C2(C(=O)Nc3cccc(-c4c[nH]c5ncnc(N6CCOCC6)c45)c3)CC2)ccc1F [Compound 20]
b. Cc1cc(F)ccc1NC(=O)C1(C(=O)Nc2cccc(-c3c[nH]c4ncnc(N5CCOCC5)c34)c2)CC1 [Compound 24]
Exercise: Which entry shows the lesser value of dTm here, a or b ? Answer by quoting the chosen item's label.
Solution: b

1. CCc1ccc(NC(=O)C2(C(=O)Nc3cccc(-c4c[nH]c5ncnc(N6CCOCC6)c45)c3)CC2)cc1 [Compound 15]
2. COc1ccc(NC(=O)C2(C(=O)Nc3cccc(-c4c[nH]c5ncnc(N6CCOCC6)c45)c3)CC2)cc1 [Compound 16]
Exercise: Which entry shows the lesser value of dTm here, 1 or 2 ? Answer by quoting the chosen item's label.
Solution: 2
